# TESTED_SYSTEM: Glucosyltransferase-I (Streptococcus mutans serotype c (strain ATCC 700610 / UA159)) (UniProt P08987)
# Sequence (P08987 whole entry): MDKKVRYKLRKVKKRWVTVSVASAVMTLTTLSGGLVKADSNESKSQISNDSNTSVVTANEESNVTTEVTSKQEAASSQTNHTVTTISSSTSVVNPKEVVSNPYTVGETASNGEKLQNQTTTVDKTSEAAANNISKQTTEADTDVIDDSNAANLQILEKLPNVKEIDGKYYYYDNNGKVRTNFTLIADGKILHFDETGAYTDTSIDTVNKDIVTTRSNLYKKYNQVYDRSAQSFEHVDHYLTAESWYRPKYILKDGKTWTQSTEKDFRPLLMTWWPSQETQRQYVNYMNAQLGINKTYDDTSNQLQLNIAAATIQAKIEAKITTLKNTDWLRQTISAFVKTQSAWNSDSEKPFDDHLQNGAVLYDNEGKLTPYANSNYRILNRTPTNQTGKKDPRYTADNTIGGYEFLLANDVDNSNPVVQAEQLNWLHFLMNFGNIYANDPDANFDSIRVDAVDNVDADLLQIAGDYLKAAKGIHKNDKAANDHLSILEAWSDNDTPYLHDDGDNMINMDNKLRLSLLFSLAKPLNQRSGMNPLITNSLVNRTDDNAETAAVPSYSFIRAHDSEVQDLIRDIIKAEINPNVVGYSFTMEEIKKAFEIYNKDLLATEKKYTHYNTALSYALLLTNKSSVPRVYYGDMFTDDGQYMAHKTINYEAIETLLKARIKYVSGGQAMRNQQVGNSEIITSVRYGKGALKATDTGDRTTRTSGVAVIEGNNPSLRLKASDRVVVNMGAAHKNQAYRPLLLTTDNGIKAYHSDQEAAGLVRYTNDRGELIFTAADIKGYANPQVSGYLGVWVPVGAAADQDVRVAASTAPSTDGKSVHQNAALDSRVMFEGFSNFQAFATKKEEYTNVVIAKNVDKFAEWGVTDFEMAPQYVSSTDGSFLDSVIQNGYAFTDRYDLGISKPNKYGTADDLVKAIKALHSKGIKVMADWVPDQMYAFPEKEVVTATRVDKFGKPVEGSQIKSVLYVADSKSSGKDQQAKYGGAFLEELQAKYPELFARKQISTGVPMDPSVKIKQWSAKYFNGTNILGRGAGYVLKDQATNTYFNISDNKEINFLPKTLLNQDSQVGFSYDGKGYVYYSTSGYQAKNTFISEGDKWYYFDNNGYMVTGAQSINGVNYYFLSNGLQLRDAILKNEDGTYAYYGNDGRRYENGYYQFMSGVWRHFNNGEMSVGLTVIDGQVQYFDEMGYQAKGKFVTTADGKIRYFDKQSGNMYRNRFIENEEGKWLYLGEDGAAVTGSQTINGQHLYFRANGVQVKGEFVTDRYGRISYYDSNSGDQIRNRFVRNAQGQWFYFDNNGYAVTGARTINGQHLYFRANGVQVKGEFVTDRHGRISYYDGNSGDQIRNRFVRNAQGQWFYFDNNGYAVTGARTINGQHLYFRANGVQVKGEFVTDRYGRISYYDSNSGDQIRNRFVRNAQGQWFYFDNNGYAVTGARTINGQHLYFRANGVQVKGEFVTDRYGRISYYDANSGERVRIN
# PROCEDURE_SUMMARY: Inhibition of GtfB in Streptococcus mutans UA159 assessed as reduction in glucans level by Coomassie blue dye based SDS-PAGE analysis
Active and inactive are the calls of the source. The calls are words filed in the database; no cut-off is given here.
RECORDED_METRIC: inhibition

Here are 5 molecules together with their reported answers.
NC(=O)c1cccc(NC(=O)c2cnc3ccccc3c2)c1 : Active
NC(=O)c1ccccc1NC(=O)c1cnc2ccccc2c1 : Active
COC(=O)c1ccc(NC(=O)c2cc3cc([N+](=O)[O-])ccc3s2)cc1 : Active
O=C(c1ccc(F)cc1)c1ccc(-c2[nH]c(-c3ccc([N+](=O)[O-])cc3O)nc2-c2ccccc2)cc1 : Active
NC(=O)c1ccccc1NC(=O)c1cc2cc([N+](=O)[O-])ccc2s1 : Active

Read off the recorded inhibition for CC(C)(C)OC(=O)NCc1ccccc1NC(=O)c1cnc2ccccc2c1
Active

Read off the recorded inhibition for CC(C)(C)OC(=O)NCc1ccccc1NC(=O)c1cc2cc([N+](=O)[O-])ccc2s1
Active
